assay: Anti-proliferative activity against human HT1080 cells after 72 hrs by MTT assay; format: functional, cell-based; conditions: HT-1080, 72 h
Readout: pIC50
// scale note: pIC50 = -log10(conc_M); give the bare number

Reference set, count: 3
> print(dat)
                      smiles.representation  reported.result
1  CCOC(=O)c1cc(-c2cc(OC)c(OC)c(OC)c2)c(-c2ccc3ccccc3c2)s1             5.94
2  COc1ccc(-c2sc(C(=O)O)cc2-c2cc(OC)c(OC)c(OC)c2)cc1O             5.12
3  COc1ccc(-c2ccsc2-c2cc(OC)c(OC)c(OC)c2)cc1             5.44

Incoming: So what's the measured pIC50 for this one? `COc1ccc(-c2sccc2-c2cc(OC)c(OC)c(OC)c2)cc1`
Outgoing: 5.34

Incoming: So what's the measured pIC50 for this one? `COc1ccc(-c2ccsc2-c2cc(OC)c(OC)c(OC)c2)cc1O`
Outgoing: 5.67

Incoming: So what's the measured pIC50 for this one? `COc1ccc(-c2sccc2-c2cc(OC)c(OC)c(OC)c2)cc1[N+](=O)[O-]`
Outgoing: 5.68

Incoming: So what's the measured pIC50 for this one? `COc1cc(-c2cc(C(=O)O)sc2-c2ccc3ccccc3c2)cc(OC)c1OC`
Outgoing: 4.87

Incoming: So what's the measured pIC50 for this one? `COc1ccc(-c2sc(C(=O)O)cc2-c2cc(OC)c(OC)c(OC)c2)cc1[N+](=O)[O-]`
Outgoing: 4.43

====

assay: Anti-proliferative activity against human HT1080 cells after 72 hrs by MTT assay; assay type: functional, cell-based; conditions: HT-1080, 72 h
Readout: IC50

Reference set, count: 5
> print(dat)
                      smiles.representation  reported.result
1   COc1cc(-c2ccsc2-c2cccc(Br)c2)cc(OC)c1OC         > 100 µM
2  COc1ccc(-c2cc(C(=O)O)sc2-c2cc(OC)c(OC)c(OC)c2)cc1OCc1ccccc1         > 100 µM
3  CCOC(=O)c1cc(-c2cc(OC)c(OC)c(OC)c2)c(-c2ccc(OC)c(OCc3ccccc3)c2)s1         > 100 µM
4  CCOC(=O)c1cc(-c2cc(OC)c(OC)c(OC)c2)c(-c2cccc(Br)c2)s1         > 100 µM
5  COc1cc(-c2cc(C(=O)O)sc2-c2cccc(Br)c2)cc(OC)c1OC         > 100 µM

Incoming: So what's the measured IC50 for this one? `COc1ccc(-c2sccc2-c2cc(OC)c(OC)c(OC)c2)cc1OCc1ccccc1`
Outgoing: > 100 µM

====

Measured IC50, listed per entry for reference.
assay: Anti-proliferative activity against human HT1080 cells after 72 hrs by MTT assay; type: functional, cell-based; details: HT-1080, 72 h

Incoming: So what's the measured IC50 for this one? `CCOC(=O)c1cc(-c2ccc(OC)c(OCc3ccccc3)c2)c(-c2cc(OC)c(OC)c(OC)c2)s1`
Outgoing: > 100 µM

Incoming: So what's the measured IC50 for this one? `COc1ccc(-c2sc(C(=O)O)cc2-c2cc(OC)c(OC)c(OC)c2)cc1OCc1ccccc1`
Outgoing: > 100 µM

Incoming: So what's the measured IC50 for this one? `COc1ccc(-c2ccsc2-c2cc(OC)c(OC)c(OC)c2)cc1OCc1ccccc1`
Outgoing: > 100 µM
